Field: IC50. System: Amine oxidase [copper-containing] 3 (Rattus norvegicus, UniProt O08590). Provenance: assorted publications.
Sequence (O08590 whole entry): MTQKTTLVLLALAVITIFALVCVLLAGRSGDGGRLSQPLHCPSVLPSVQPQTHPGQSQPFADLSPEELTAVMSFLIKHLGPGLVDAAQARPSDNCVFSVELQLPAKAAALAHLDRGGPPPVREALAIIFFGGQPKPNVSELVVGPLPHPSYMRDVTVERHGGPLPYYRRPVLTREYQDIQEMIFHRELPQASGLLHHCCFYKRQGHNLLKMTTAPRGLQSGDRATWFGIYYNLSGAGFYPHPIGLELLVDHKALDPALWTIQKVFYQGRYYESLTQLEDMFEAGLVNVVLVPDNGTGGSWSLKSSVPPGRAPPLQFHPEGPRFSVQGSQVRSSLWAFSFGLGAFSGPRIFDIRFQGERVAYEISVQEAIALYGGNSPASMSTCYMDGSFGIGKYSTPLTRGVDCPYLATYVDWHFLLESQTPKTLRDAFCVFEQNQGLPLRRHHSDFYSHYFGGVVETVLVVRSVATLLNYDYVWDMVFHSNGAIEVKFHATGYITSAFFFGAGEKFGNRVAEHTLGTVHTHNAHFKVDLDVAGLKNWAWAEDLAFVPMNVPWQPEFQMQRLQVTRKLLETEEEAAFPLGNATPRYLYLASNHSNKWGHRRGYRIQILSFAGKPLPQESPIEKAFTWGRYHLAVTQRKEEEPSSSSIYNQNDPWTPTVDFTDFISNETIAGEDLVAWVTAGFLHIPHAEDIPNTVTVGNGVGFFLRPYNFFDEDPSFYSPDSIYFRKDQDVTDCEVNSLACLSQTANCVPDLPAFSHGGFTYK
# condition met = IC50 below 4 nM (exclusive); condition not met = IC50 at/above 4 nM

Consider the worked cases shown below.
N=C(N)NC(=O)OCc1cccc(-c2cnc(N3CC[C@H](F)C3)nc2)c1 | condition not met
NNC(=O)Cc1ccc(CCc2cc(N3CCNCC3)ncn2)cc1 | condition not met
COCc1cncc(N2CCN(c3cccc(COC(=O)NC(=N)N)c3F)CC2)c1 | condition met
C[C@@H]1CN(c2ccc(-c3cccc(CN(C)C(=O)CN)c3)cn2)C[C@H](C)O1 | condition not met
N=C(N)NC(=O)OCc1cccc(N2CCN(c3ccn4ccnc4c3)CC2)c1F | condition met

Does N=C(N)NC(=O)OCc1cccc(N2CCN(c3cnc(N4CC[C@@H](F)C4)nc3)CC2)c1F have IC50 strictly under 4 nM? condition met

Bench note: check whether CCC(=O)N1CCC(OC2CN(c3cccc(COC(=O)NC(=N)N)c3F)C2)CC1 shows IC50 below 4 nM condition met

Consider the compound N=C(N)NC(=O)NCc1cccc(-c2cnc(N3CCOCC3)nc2)c1 . Is its IC50 strictly less than 4 nM? condition not met

Please determine if CN(Cc1cccc(-c2cnc(N3CCN(c4ncc(C(=O)O)cc4Cl)CC3)nc2)c1)C(=O)CN is below 4 nM in terms of IC50. condition not met

====

Consider the following pIC50 data for Amine oxidase [copper-containing] 3 (Rattus norvegicus), collected from several reports.
Friendly reminder that pIC50 comes from taking -log10 of the concentration in mol/L.

Record excerpt, results attached:
CC(=O)Nc1nc(CCc2cccc(CNC(=O)NC(=N)N)c2)cs1.Cl | 8.72
CS(=O)(=O)N1CCC(C2CN(c3cccc(COC(=O)NC(=N)N)c3F)C2)CC1 | 8.82
COCc1cc(N2CCN(c3cccc(COC(=O)NC(=N)N)c3F)CC2)ccn1 | 8.92

Reported pIC50 for COc1ncc(N2CCN(c3cccc(COC(=O)NC(=N)N)c3F)CC2)cn1 : what is it? 9.28

Entry CC(=O)N1CCN(c2ccc(CCc3csc(CCCOC(=O)NN)c3)nc2)CC1 : reported pIC50 = ? 8.26

Any idea what its pIC50 is? The compound is Cc1cc(COC2CN(c3cccc(COC(=O)NC(=N)N)c3F)C2)cc(C)n1 8.46

So what does the record say about pIC50 for COCCC(=O)N1CCC(C2CN(c3cccc(COC(=O)NC(=N)N)c3F)C2)CC1 ? 8.82

Which pIC50 is reported for this compound? CN(Cc1cccc(-c2cnc(N3CC=C(c4cccnc4)CC3)nc2)c1)C(=O)CN 7.85

====

Across several publications, the following pIC50 results were reported for Amine oxidase [copper-containing] 3 (Rattus norvegicus).
pIC50 is a log-scale quantity: -log10 of the concentration expressed in molar.

These recorded examples may help you get a feel for the data.
CN(Cc1cccc(-c2cnc(N3CCN(c4ncccc4Cl)CC3)nc2)c1)C(=O)CN | 7.36
N=C(N)NC(=O)OCc1cccc(-c2cnc(OCC3CCN(C(=O)C4CC4)CC3)nc2)c1F | 8.74
N=C(N)NC(=O)OCc1cccc(N2CCN(C(=O)CC3CCOCC3)CC2)c1F | 9.02

Which pIC50 value belongs to CC(=O)N1CCN(c2ccc(CCc3ccc(CCNC(=O)NN)s3)nc2)CC1 ? 8.57

Quick one: pIC50 for Cc1ccc(N2CCN(c3cccc(COC(=O)NC(=N)N)c3F)CC2)cn1 ? 8.77

GET /values?readout=pIC50&item= CC(=O)N1CCC(C2CN(c3cccc(COC(=O)NC(=N)N)c3F)C2)CC1 9.09

// lookup pIC50 for COCc1ccc(OC2CN(c3cccc(COC(=O)NC(=N)N)c3F)C2)cn1 8.52

Would you mind telling me what pIC50 value was observed for Cn1cc(OC2CN(c3cccc(COC(=O)NC(=N)N)c3F)C2)ccc1=O ? 8.80

What value of pIC50 has been reported for the following compound? N=C(N)NC(=O)OCc1cccc(-c2cnc(N3CCN(c4ccc(CCC(=O)O)cc4)CC3)nc2)c1F 8.70
